Where these numbers come from: PubChem BioAssay AID463173

- Tested on: DeltatarO mutant
- assayMethodText: S. aureus survival, RN4220 and DeltatarO strains – OD600, teichoic acid synthesis inhibitors, primary screen (AID 463173)
- conditionLabel: S. aureus RN4220 wild type/DeltatarO growth, OD600, 18 h, screened at 18.75 µg/mL (by protocol)
In all, about 52,000 compounds went through this assay and about 4,300 (8.3%) were called active. No stated cut-off is given here; in the data, active means survival mostly below about 52% (no sharp cut-off); inactive means mostly above about 56%. This excerpt belongs to a sample that is enriched for actives.
Returns: one label drawn from active, inactive

| compound | systemTested | assignedLabel |
| --- | --- | --- |
| O=C(Nc1ccc(Cl)c(Cl)c1)N1CCC(c2ccccc2)C1 (stereo not given) | DeltatarO mutant | inactive |
| Cc1ccc(NC(=O)CSc2nc(C3CCCC3)nc3c2c(=O)n(C)c(=O)n3C)c(C)c1 | DeltatarO mutant | inactive |
| CCOc1ccccc1NC(=O)c1cn(C2CCCC2)c(=O)c2c1c1ccccc1n2C | DeltatarO mutant | inactive |
| COC(=O)c1ccccc1NC(=O)CN1C(=O)COc2ccc(Cl)cc21 | DeltatarO mutant | active |

Please find the next compound below.
*Q* Lab log entry: Cc1ccc(C2CCN(C(=O)Nc3ccc(Cl)cc3)C2)cc1 (stereo not given) — outcome as called in the assay?
*A* inactive

###

- Test system: DeltatarO mutant
- assayMethodText: S. aureus survival, RN4220 and DeltatarO strains – OD600, teichoic acid synthesis inhibitors, primary screen (AID 463173)
- conditionLabel: S. aureus RN4220 wild type/DeltatarO growth, OD600, 18 h, hits give low values, screened at 18.75 µg/mL (by protocol)
About 4,300 (8.3%) of roughly 52,000 compounds were called active. What follows is part of a selection rich in actives, with near analogues and random picks from the rest.
The entries below come with measured survival values attached.
# output: bare number, implied unit %

| compound | resultType | resultUnit | reportedResult |
| --- | --- | --- | --- |
| O=C(Nc1ccc(Br)c2cccnc12)c1cccc2ccccc12 | survival | % | 29 |
| O=C(Nc1cccc2cccnc12)c1cccc2ccccc12 | survival | % | 1 |

*Q* Entry O=C(Nc1cccc2cccnc12)c1ccccc1[N+](=O)[O-] has what survival?
*A* 68

*Q* Entry CC1CN(C(=O)Nc2ccc(C(=O)NCCc3ccccc3Cl)cc2)c2ccccc2S1 (stereo unspecified) has what survival?
*A* 61

*Q* Entry Cc1ccc(OCC(=O)Nc2nnc(S(=O)(=O)N3CCCCCC3)s2)cc1 has what survival?
*A* 64

*Q* Entry O=C(O)c1ccccc1C(=O)Nc1ccc(Br)c2cccnc12 has what survival?
*A* 49

###

- System: DeltatarO mutant
- assayMethodText: S. aureus survival, RN4220 and DeltatarO strains – OD600, teichoic acid synthesis inhibitors, primary screen (AID 463173)
- conditionLabel: S. aureus RN4220 wild type/DeltatarO growth, OD600, 18 h, hits give low values, screened at 18.75 µg/mL (by protocol)
The whole screen tested about 52,000 compounds, of which about 4,300 (8.3%) were called active. The entries come from a sample that favours actives as a whole.
resultType: survival (%)
# output: bare number, implied unit %

| inputSmiles | resultType | resultUnit | reportedResult |
| --- | --- | --- | --- |
| Cc1ccc(CSc2oc(-c3cccs3)nc2S(=O)(=O)c2ccc(C)cc2)cc1 | survival | % | 135 |

*Q* Entry CCCSc1oc(-c2cccs2)nc1S(=O)(=O)c1ccc(C)cc1 has what survival?
*A* 41

*Q* Entry CCCCS(=O)(=O)c1oc(-c2cccs2)nc1S(=O)(=O)c1ccc(F)cc1 has what survival?
*A* 56

*Q* Entry Cc1ccc(CSc2oc(-c3cccs3)nc2S(=O)(=O)c2ccccc2)cc1 has what survival?
*A* 65

*Q* Entry CCN(Cc1ccccc1)C(=O)CN1C(=O)COc2ccc(S(=O)(=O)N3CCOCC3)cc21 has what survival?
*A* 98
